assayed target: DRB1*0101 (human, UniProt P01903 26-216, limits assumed)
experiment summary: competition vs 125I probe peptide, purified MHC II
test readout: pIC50
Note on pIC50: it is the negative log10 of concentration, concentration in mol/L.

Data request: What does the data say about its pIC50? Entry: DTKRKLFRVYSNFLR
Data returned: 7.89

Data request: What does the data say about its pIC50? Entry: DTFRKNFRVYSNFLR
Data returned: 7.21

Data request: What does the data say about its pIC50? Entry: DTPRKLFRVYSNFLR
Data returned: 7.89

These entries and their values trace back to patent US20070184519A1.
